Assay Readout: melting point

> print(dat)
                                    molecule      readout.value
 1  CCN1CCN(Cc2cc(S(=O)(=O)n3ccc4ccccc43)ccc2C)CC1.Cl.Cl [Example 23]          250.13 °C
 2  CN1CCN(Cc2cc(S(=O)(=O)n3ccc4c(Cl)cccc43)ccc2Cl)CC1.Cl.Cl [Example 20]  242.7 to 244.3 °C
 3  CCN1CCN(Cc2cc(S(=O)(=O)n3ccc4cc(F)ccc43)ccc2C)CC1.Cl.Cl [Example 44]  203.4 to 206.2 °C
 4  COc1ccc2c(c1)c(C)cn2S(=O)(=O)c1ccc(C)c(CN2CCN(C)CC2)c1.Cl.Cl          190.32 °C
 5  CN1CCN(Cc2cc(S(=O)(=O)n3ccc4cc(Br)ccc43)ccc2Br)CC1.Cl.Cl  208.2 to 209.2 °C
 6  Cc1ccc(S(=O)(=O)n2ccc3cc(F)ccc32)cc1CN1CCN(C)CC1.Cl.Cl [Example 43]  220.3 to 223.4 °C
 7  CCN1CCN(Cc2cc(S(=O)(=O)n3ccc4cc(F)ccc43)ccc2Br)CC1 [Example 4]    92.2 to 93.9 °C
 8  CCN1CCN(Cc2cc(S(=O)(=O)n3ccc4cc(OC)ccc43)ccc2C)CC1.Cl.Cl          160.94 °C
 9  CCN1CCN(Cc2cc(S(=O)(=O)n3cc(C)c4ccccc43)ccc2Cl)CC1.Cl.Cl  218.9 to 220.5 °C
10  CN1CCN(Cc2cc(S(=O)(=O)n3ccc4ccccc43)ccc2Cl)CC1.Cl.Cl [Example 13]  210.6 to 213.9 °C
11  COc1ccc2c(c1)c(C)cn2S(=O)(=O)c1ccc(Br)c(CN2CCN(C)CC2)c1.Cl.Cl  214.3 to 215.7 °C
12  CCN1CCN(Cc2cc(S(=O)(=O)n3ccc4cc(OC)ccc43)ccc2Br)CC1 [Example 3]  196.1 to 198.6 °C
13  CCN1CCN(Cc2cc(S(=O)(=O)n3ccc4cc(Br)ccc43)ccc2Br)CC1.Cl.Cl [Example 37]  205.1 to 207.1 °C
14  CN1CCN(Cc2cc(S(=O)(=O)n3ccc4cc(Br)ccc43)ccc2Cl)CC1.Cl.Cl  214.7 to 215.6 °C
15  Cc1cn(S(=O)(=O)c2ccc(Cl)c(CN3CCN(C)CC3)c2)c2ccccc12.Cl.Cl [Example 35]  216.9 to 218.7 °C

====

Attribute: melting point
Assay Readout: melting point

> print(dat)
                           structure.smiles  assay.readout      readout.value
1  CCN1CCN(Cc2cc(S(=O)(=O)n3cc(C)c4cc(OC)ccc43)ccc2Br)CC1.Cl.Cl  melting point  211.3 to 212.1 °C
2  COc1ccc2c(ccn2S(=O)(=O)c2ccc(Br)c(CN3CCN(C)CC3)c2)c1  melting point    115.2 to 120 °C
3  CCN1CCN(Cc2cc(S(=O)(=O)n3ccc4c(Cl)cccc43)ccc2Cl)CC1.Cl.Cl  melting point  205.9 to 207.2 °C
4  Cc1cn(S(=O)(=O)c2ccc(Br)c(CN3CCN(C)CC3)c2)c2ccccc12.Cl.Cl  melting point    210.5 to 213 °C
5  CCN1CCN(Cc2cc(S(=O)(=O)n3ccc4cc(F)ccc43)ccc2Cl)CC1.Cl.Cl  melting point  204.1 to 205.5 °C
6  CCN1CCN(Cc2cc(S(=O)(=O)n3ccc4cc(Br)ccc43)ccc2Cl)CC1.Cl.Cl  melting point  208.6 to 212.8 °C
7  CN1CCN(Cc2cc(S(=O)(=O)n3ccc4ccccc43)ccc2Br)CC1.Cl.Cl  melting point    214.1 to 216 °C
8  CN1CCN(Cc2cc(S(=O)(=O)n3cc(Br)c4cc(F)ccc43)ccc2Cl)CC1  melting point  161.3 to 162.6 °C

====

Assay Explanation: Rodent pharmacokinetic study
Type: in vivo, Male wistar rats
Assay Conditions: plasma; Wistar/Male rat, 10 mg/kg, water, Intravenous
Assay Readout: Tmax

> print(dat)
                                   compound  assay.readout  readout.value
1  CCN1CCN(Cc2cc(S(=O)(=O)n3ccc4ccccc43)ccc2C)CC1.Cl.Cl [Example 23]           Tmax        4.8 min
2  Cc1cn(S(=O)(=O)c2ccc(Cl)c(CN3CCN(C)CC3)c2)c2ccccc12.Cl.Cl [Example 35]           Tmax        4.8 min
3  Cc1ccc(S(=O)(=O)n2ccc3ccccc32)cc1CN1CCN(C)CC1.Cl.Cl [Example 22]           Tmax        4.8 min

====

Assay Readout: melting point

> print(dat)
                                   molecule      readout.value
1  CCN1CCN(Cc2cc(S(=O)(=O)n3ccc4cc(OC)ccc43)ccc2Cl)CC1.Cl.Cl [Example 18]    209.5 to 211 °C
2  COc1ccc2c(c1)c(C)cn2S(=O)(=O)c1ccc(Cl)c(CN2CCN(C)CC2)c1.Cl.Cl  213.3 to 214.2 °C
3  CCN1CCN(Cc2cc(S(=O)(=O)n3cc(C)c4cc(OC)ccc43)ccc2Cl)CC1.Cl.Cl [Example 30]  217.5 to 220.8 °C
4  CN1CCN(Cc2cc(S(=O)(=O)n3ccc4cc(F)ccc43)ccc2Br)CC1.Cl.Cl  219.4 to 221.6 °C

====

Attribute: Ki
Assayed System: Human 5-HT6 receptor (Homo sapiens)
Sequence (P50406 whole entry): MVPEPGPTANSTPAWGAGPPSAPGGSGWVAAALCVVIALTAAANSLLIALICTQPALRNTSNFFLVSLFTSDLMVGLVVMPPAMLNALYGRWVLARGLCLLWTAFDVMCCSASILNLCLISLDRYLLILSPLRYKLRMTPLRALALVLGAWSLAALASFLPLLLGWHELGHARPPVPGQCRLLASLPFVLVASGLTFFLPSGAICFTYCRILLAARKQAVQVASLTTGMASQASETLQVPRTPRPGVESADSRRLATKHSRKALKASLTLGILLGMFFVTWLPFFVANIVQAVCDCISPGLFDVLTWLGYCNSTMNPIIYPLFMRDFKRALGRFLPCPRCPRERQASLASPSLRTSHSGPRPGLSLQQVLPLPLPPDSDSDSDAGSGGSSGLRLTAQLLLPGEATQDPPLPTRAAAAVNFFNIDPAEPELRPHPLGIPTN
Assay Explanation: Binding assay for human 5-HT6 receptor ([3H] LSD radioligand)
Assay Conditions: [3H] LSD 1.5 nM; human recombinant receptor in HEK293 cells
Procedure: Binding Assay for Human 5-HT6 Receptor Compounds can be tested according to the following the procedures. Materials and Methods: Receptor source: Human recombinant expressed in HEK293 cells Radioligand: [^3H] LSD (60-80 Ci/mmol) Final ligand concentration—[1.5 nM] Non-specific determinant: Methiothepin mesylate—[0.1 μM] Reference compound: Methiothepin mesylate Positive control: Methiothepin mesylate […]
Assay Readout: Ki (nM)

> print(dat)
                                   molecule  assay.readout  readout.value
1  CCN1CCN(Cc2cc(S(=O)(=O)n3ccc4ccccc43)ccc2C)CC1.Cl.Cl [Example 23, dihydrochloride]             Ki           3.96
2  CN1CCN(Cc2cccc(S(=O)(=O)n3ccc4ccccc43)c2)CC1             Ki           1.91
3  Cc1cn(S(=O)(=O)c2ccc(Cl)c(CN3CCN(C)CC3)c2)c2ccccc12.Cl.Cl [Example 35, dihydrochloride]             Ki           5.45
4  Cc1cn(S(=O)(=O)c2ccc(Br)c(CN3CCN(C)CC3)c2)c2ccccc12.Cl.Cl [Example 38, dihydrochloride]             Ki           9.11
5  Cc1ccc(S(=O)(=O)n2ccc3ccccc32)cc1CN1CCN(C)CC1.Cl.Cl [Example 22, dihydrochloride]             Ki           7.01
6  CCN1CCN(Cc2cc(S(=O)(=O)n3ccc4ccccc43)ccc2Cl)CC1.Cl.Cl [Example 15, dihydrochloride]             Ki           18.4

====

Attribute: inhibition at 0.1 µM
Assayed System: Human 5-HT6 receptor (Homo sapiens)
Construct: expressed in transfected cells; host or cells: HEK293
Assay Explanation: Binding assay for human 5-HT6 receptor ([3H] LSD radioligand)
Assay Conditions: 100 nM test compound; [3H] LSD 1.5 nM; human recombinant receptor in HEK293 cells; read-out: % Inhibition of specific binding at 100 nM
Assay Readout: inhibition at 0.1 µM (%)

> print(dat)
                                    molecule  readout.value
 1  COc1ccc2c(ccn2S(=O)(=O)c2ccc(C)c(CN3CCN(C)CC3)c2)c1.Cl.Cl [Example 24, dihydrochloride]           62.2
 2  CCN1CCN(Cc2cc(S(=O)(=O)n3ccc4c(Cl)cccc43)ccc2Cl)CC1.Cl.Cl [Example 19, dihydrochloride]             82
 3  CN1CCN(Cc2cc(S(=O)(=O)n3ccc4ccccc43)ccc2Cl)CC1.Cl.Cl [Example 13, dihydrochloride]           83.3
 4  CN1CCN(Cc2cc(S(=O)(=O)n3ccc4cc(F)ccc43)ccc2Cl)CC1.Cl.Cl [Example 14, dihydrochloride]             73
 5  CN1CCN(Cc2cc(S(=O)(=O)n3ccc4c(Cl)cccc43)ccc2Cl)CC1.Cl.Cl [Example 20, dihydrochloride]           85.2
 6  Cc1ccc(S(=O)(=O)n2ccc3cc(F)ccc32)cc1CN1CCN(C)CC1.Cl.Cl [Example 43, dihydrochloride]           86.2
 7  COc1ccc2c(ccn2S(=O)(=O)c2ccc(Cl)c(CN3CCN(C)CC3)c2)c1.Cl.Cl [Example 16, dihydrochloride]             42
 8  COc1ccc2c(ccn2S(=O)(=O)c2cccc(CN3CCN(C)CC3)c2)c1           67.6
 9  CCN1CCN(Cc2cc(S(=O)(=O)n3cc(C)c4cc(OC)ccc43)ccc2Cl)CC1.Cl.Cl [Example 30, dihydrochloride]             68
10  CCN1CCN(Cc2cc(S(=O)(=O)n3ccc4cc(OC)ccc43)ccc2Cl)CC1.Cl.Cl [Example 18, dihydrochloride]           55.7
11  CCN1CCN(Cc2cc(S(=O)(=O)n3ccc4cc(F)ccc43)ccc2Br)CC1           62.5
12  CCN1CCN(Cc2cc(S(=O)(=O)n3ccc4cc(F)ccc43)ccc2Cl)CC1.Cl.Cl [Example 25, dihydrochloride]           64.8
13  CN1CCN(Cc2cccc(S(=O)(=O)n3ccc4cc(F)ccc43)c2)CC1           79.2
14  CCOc1ccc2c(ccn2S(=O)(=O)c2cccc(CN3CCN(C)CC3)c2)c1           63.7
15  CCN1CCN(Cc2cc(S(=O)(=O)n3ccc4cc(F)ccc43)ccc2C)CC1.Cl.Cl [Example 44, dihydrochloride]           78.5
